- MEASURED_TARGET: T1, Hof1, Q05080
- T1 sequence (Q05080 590-669, looked up): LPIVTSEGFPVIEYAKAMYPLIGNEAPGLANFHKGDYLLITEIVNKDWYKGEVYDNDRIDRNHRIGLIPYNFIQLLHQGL
- PROTOCOL_DETAILS: SPOT array
- CONDITION_DESCRIPTION: median of control spots 4086
PROPERTY_NAME: SPOT intensity

// query SPOT intensity value for entry RRSKSLPTTPGIRSG
0

And the next one, IVNKPLPPLPVAGSS ?
1440

And the next one, ANNQGPPNLPARDKS ?
0

A = AKDLIVPRRPEWNEG
B = NFFRKKLGIPRKLKR
C = SSAAPPPPPRRATPE
D = NSVPIMPTLPPRPYI
E = VRTRRRPPPPPIPST
List the 5 entries from lowest SPOT intensity to highest SPOT intensity value. Answer by writing out the labels in the requested order.
C, E, B, D, A

a = TKRKRPARLIFYDSK
b = VDFTLPPPPPPPGLD
Which value of SPOT intensity is smaller, the one for a or the one for b ? Reply with the label of the item you choose.
a
(a: 4, b: 143)

P = IKTRSVPKIPSIESV
Q = QPWTDQFEKLEKEVS
R = NENKKLPPAPTVFGL
S = TTNRGPPPLPPRANV
List the 4 entries from lowest SPOT intensity to highest SPOT intensity value. Answer by writing out the labels in the requested order.
Q, R, P, S
